Reference for the values: patent US20250320213A1

Listed next: entries and their corresponding EC50.
Biological target: STAT6 (Homo sapiens)
Construct: stably transfected HaCaT keratinocyte cell line, which expresses NanoLuc luciferase reporter gene under the transcriptional control of the STAT6 responsive promoter; endogenous in cells; host or cells: HaCaT keratinocyte reporter cell line (stably transfected with a NanoLuc reporter)
Sequence (P42226 1-847): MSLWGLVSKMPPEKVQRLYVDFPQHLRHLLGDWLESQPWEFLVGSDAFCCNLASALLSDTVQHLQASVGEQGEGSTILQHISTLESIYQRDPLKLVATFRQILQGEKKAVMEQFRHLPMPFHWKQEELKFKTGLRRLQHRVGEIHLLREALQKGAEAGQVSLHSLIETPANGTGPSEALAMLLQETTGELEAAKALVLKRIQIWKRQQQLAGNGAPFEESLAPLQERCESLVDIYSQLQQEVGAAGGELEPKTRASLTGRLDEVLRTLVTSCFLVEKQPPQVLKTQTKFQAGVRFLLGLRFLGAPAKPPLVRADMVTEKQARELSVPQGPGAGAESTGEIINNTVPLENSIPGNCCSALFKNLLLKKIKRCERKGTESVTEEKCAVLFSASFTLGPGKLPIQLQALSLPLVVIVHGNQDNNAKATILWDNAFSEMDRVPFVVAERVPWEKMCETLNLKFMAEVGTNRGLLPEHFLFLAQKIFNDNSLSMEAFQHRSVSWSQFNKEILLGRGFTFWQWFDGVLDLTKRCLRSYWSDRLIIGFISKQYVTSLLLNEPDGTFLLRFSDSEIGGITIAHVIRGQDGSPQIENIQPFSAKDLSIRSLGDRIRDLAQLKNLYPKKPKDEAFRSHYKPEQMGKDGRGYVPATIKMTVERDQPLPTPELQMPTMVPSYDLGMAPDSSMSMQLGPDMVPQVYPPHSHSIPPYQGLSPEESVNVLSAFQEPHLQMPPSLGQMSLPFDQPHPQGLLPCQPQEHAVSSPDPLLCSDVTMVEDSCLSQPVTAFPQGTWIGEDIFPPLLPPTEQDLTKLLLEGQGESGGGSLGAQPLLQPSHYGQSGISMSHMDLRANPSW
Test: STAT6 Reporter Luciferase Assay (IL-13 stimulated HaCaT keratinocyte NanoLuc reporter cells)
Type: cell-based
Settings: IL-13 stimulated HaCaT STAT6 NanoLuc reporter cells; read-out: Reporter EC50
// units = nM; emit number, no label

{"compound": "CC(n1nc(C(=O)NCc2ccc(NC(=O)N(C)C)cc2)c2c1[C@H](C)CN(c1ccc(C(=O)N(C)C)cn1)C2)C(F)(F)F (mixture of isomers) [Example 553]", "unit-name": "nM", "EC50": 4}
{"compound": "CNC(=O)Nc1ccc(CNC(=O)c2nn(C(C)C)c3c2CN(c2ccc(C(=O)NC)cn2)CC3)cc1 [Example 454]", "unit-name": "nM", "EC50": 128}

input: Please indicate recorded EC50 of CC(C)n1nc(C(=O)NCc2ccc(NC(=O)N(C)C)cc2)c2c1CCN(c1ccc(C(=O)N3CCNC(=O)CC3)cn1)C2 [Example 214] measured with STAT6 (Homo sapiens).
output: 502

input: Please indicate recorded EC50 of CC(C)n1nc(C(=O)NCc2ccc(NC(=O)N(C)C)cc2)c2c1CCN(c1ccc(C(=O)N(C)CCO)cn1)C2 [Example 332] measured with STAT6 (Homo sapiens).
output: 160

input: Please indicate recorded EC50 of CCC(C)n1nc(C(=O)NCc2ccc(NC(=O)N(C)C)cc2)c2c1CCN(c1ccc(C(=O)N(C)C)cn1)C2 (single isomer, unassigned) [Example 235] measured with STAT6 (Homo sapiens).
output: 15

input: Please indicate recorded EC50 of CCn1nc(C(=O)NCc2ccc(NC(=O)N(C)C)nc2)c2c1[C@@H](C)CN(c1ccc(C(=O)N(C)C)cn1)C2 [Example 323] measured with STAT6 (Homo sapiens).
output: 5

----------
Molecular target: STAT6 (Homo sapiens, UniProt P42226)
Construct: stably transfected HaCaT keratinocyte cell line, which expresses NanoLuc luciferase reporter gene under the transcriptional control of the STAT6 responsive promoter; endogenous in cells; host or cells: HaCaT keratinocyte reporter cell line (stably transfected with a NanoLuc reporter)
Assay: STAT6 Reporter Luciferase Assay (IL-13 stimulated HaCaT keratinocyte NanoLuc reporter cells)
Assay type: cell-based
Settings: STAT6 NanoLuc luciferase reporter, IL-13 stimulated HaCaT keratinocyte cells; read-out: Reporter EC50
assay-endpoint: pEC50
The value called pEC50 is obtained by taking minus log10 of the concentration in mol/L.

Illustrative cases are given below, each with its answer.
{"compound": "CC(C)n1nc(C(=O)NCc2ccc(-c3nccc(=O)[nH]3)cc2)c2c1CCN(c1ccc(C(=O)N(C)C)cn1)C2", "pEC50": 6.54}
{"compound": "CC1CN(c2ccc(C(=O)N(C)C)cn2)Cc2c(C(=O)NCc3ccc(NC(=O)N(C)C)cc3)nn(C(C)C)c21 (racemic)", "pEC50": 9.00}

Here's the next entry for you.
input: Please report pEC50 for the following compound: COCCNC(=O)Nc1ccc(CNC(=O)c2nn(C(C)C)c3c2CN(c2ccc(C(=O)N(C)C)cn2)CC3)cc1
output: 8.15

----------
Molecular target: STAT6 (Homo sapiens, UniProt P42226)
Construct: stably transfected HaCaT keratinocyte cell line, which expresses NanoLuc luciferase reporter gene under the transcriptional control of the STAT6 responsive promoter; endogenous in cells; host or cells: HaCaT keratinocyte reporter cell line (stably transfected with a NanoLuc reporter)
Sequence (P42226 1-847): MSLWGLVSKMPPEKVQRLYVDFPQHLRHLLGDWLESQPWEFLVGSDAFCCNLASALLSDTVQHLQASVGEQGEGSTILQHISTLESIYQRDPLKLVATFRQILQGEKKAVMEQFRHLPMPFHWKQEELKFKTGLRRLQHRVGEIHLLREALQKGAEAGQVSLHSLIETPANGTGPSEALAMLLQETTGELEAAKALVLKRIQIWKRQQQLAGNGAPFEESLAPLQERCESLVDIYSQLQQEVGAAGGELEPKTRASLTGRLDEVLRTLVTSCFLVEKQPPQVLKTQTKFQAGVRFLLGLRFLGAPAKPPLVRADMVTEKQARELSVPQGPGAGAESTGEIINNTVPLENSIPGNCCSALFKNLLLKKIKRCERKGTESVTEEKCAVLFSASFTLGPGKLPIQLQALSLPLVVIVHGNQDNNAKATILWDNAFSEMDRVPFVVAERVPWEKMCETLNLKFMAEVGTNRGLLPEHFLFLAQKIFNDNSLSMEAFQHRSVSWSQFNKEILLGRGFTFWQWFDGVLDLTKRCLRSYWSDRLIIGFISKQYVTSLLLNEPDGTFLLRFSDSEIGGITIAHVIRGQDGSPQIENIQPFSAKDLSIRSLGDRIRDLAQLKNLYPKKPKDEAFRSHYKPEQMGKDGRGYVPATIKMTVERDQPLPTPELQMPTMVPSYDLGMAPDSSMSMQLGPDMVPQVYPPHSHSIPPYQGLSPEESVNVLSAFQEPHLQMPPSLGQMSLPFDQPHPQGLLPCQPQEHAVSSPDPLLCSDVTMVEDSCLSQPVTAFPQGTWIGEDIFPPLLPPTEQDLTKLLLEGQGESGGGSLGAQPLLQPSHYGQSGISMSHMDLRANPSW
Test: STAT6 Reporter Luciferase Assay (IL-13 stimulated HaCaT keratinocyte NanoLuc reporter cells)
Format: cell-based
Settings: STAT6 NanoLuc luciferase reporter, IL-13 stimulated HaCaT keratinocyte cells; read-out: Reporter EC50
assay-endpoint: pEC50
The value called pEC50 is obtained by taking minus log10 of the concentration in mol/L.

{"compound": "CC(C)n1nc(C(=O)NCc2ccc(NC(=O)N3C[C@H]4CC[C@@H]3C4)cc2)c2c1CCN(c1ccc(C(=O)N(C)C)cn1)C2 (racemic)", "pEC50": 7.96}

input: Please report pEC50 for the following compound: CO[C@@H]1CN(C(=O)Nc2ccc(CNC(=O)c3nn(C(C)C)c4c3CN(c3ccc(C(=O)N(C)C)cn3)CC4)cc2)C[C@H]1F (racemic)
output: 8.30

input: Please report pEC50 for the following compound: CC(C)n1nc(C(=O)NCc2ccc(NC(=O)N(C)C)cc2)c2c1CCN(c1ccc(-n3ccnn3)cn1)C2
output: 8.40

----------
Tested on: CCL17 secretion in peripheral human whole blood
Assay: Human Whole Blood (HWB) CCL17 TR-FRET Assay (IL-13 stimulated CCL17 secretion)
Type: cell-based
Settings: human whole blood, IL-13 10 ng/mL, 48 hours
assay-endpoint: pIC50
The value called pIC50 is obtained by taking minus log10 of the concentration in mol/L.

input: Please indicate recorded pIC50 of CNC1(C)CCN(C(=O)Nc2ccc(CNC(=O)c3nn(C(C)C)c4c3CN(c3ccc(C(=O)N(C)C)cc3)C[C@@H]4C)cc2)C1 (single isomer, unassigned) measured with CCL17 secretion in peripheral human whole blood.
output: 7.55

----------
Target: STAT6 (Homo sapiens, UniProt P42226)
Construct: stably transfected HaCaT keratinocyte cell line, which expresses NanoLuc luciferase reporter gene under the transcriptional control of the STAT6 responsive promoter; endogenous in cells; host or cells: HaCaT keratinocyte reporter cell line (stably transfected with a NanoLuc reporter)
Sequence (P42226 1-847): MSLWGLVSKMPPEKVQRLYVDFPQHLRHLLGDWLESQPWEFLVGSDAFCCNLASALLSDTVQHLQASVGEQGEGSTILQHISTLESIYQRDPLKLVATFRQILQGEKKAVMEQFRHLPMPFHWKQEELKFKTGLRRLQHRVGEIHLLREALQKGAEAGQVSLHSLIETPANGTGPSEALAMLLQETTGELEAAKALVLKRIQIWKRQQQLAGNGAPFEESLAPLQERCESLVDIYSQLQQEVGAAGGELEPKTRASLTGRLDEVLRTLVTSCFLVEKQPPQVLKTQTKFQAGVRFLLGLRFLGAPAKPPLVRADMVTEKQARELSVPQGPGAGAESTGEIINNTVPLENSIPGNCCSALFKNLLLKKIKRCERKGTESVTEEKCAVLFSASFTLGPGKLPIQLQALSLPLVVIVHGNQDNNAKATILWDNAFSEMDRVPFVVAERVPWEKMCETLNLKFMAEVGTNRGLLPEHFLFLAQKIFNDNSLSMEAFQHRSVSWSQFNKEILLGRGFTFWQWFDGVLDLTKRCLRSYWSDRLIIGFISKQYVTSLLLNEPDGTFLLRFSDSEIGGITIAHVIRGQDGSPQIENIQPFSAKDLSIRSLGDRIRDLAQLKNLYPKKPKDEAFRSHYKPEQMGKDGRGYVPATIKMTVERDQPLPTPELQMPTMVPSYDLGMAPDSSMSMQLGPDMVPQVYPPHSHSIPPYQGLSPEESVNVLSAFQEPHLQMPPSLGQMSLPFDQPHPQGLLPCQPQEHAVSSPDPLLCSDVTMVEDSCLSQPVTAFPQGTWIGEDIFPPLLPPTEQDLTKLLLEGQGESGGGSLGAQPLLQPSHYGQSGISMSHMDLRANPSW
Assay: STAT6 Reporter Luciferase Assay (IL-13 stimulated HaCaT keratinocyte NanoLuc reporter cells)
Type: cell-based
Conditions: IL-13 stimulated HaCaT STAT6 NanoLuc reporter cells; read-out: Reporter EC50
Listed next: entries and their corresponding pEC50.
The value called pEC50 is obtained by taking minus log10 of the concentration in mol/L.

{"compound": "Cc1nnc2n1CCN(C(=O)c1ccc(N3CCc4c(c(C(=O)NCc5ccc(NC(=O)N(C)C)cc5)nn4C(C)C)C3)nc1)C2 [Example 373]", "obs-value": 6.27}
{"compound": "CC(C)n1nc(C(=O)NCc2ccc(NC(=O)N(C)C)cc2)c2c1CCN(c1ccc(C(=O)N3Cc4ncsc4C3)cn1)C2 [Example 402]", "obs-value": 8.52}
{"compound": "CN(C)C(=O)Nc1ccc(CNC(=O)c2nn(CCC(N)=O)c3c2CN(c2ccc(C(=O)N(C)C)cn2)CC3)cc1 [Example 309]", "obs-value": 5.77}
{"compound": "CC(C)n1nc(C(=O)NCc2ccc(NC(=O)N(C)C)cc2)c2c1CCN(c1ccc(C3COC3)cn1)C2 [Example 338]", "obs-value": 5.51}
{"compound": "CC(C)n1nc(C(=O)NCc2ccc(NC(=O)N(C)C)cc2)c2c1[C@@H](C)CN(c1ccc(C(=O)N3Cc4cccnc4C3)cc1)C2 [Example 676]", "obs-value": 9.52}

input: Please report pEC50 for the following compound: CC(C)n1nc(C(=O)NCc2ccc(NC(=O)N3CCC[C@@H](N(C)C)C3)c(F)c2)c2c1[C@@H](C)CN(c1ccc(C(=O)N(C)C)cc1)C2 [Example 682]
output: 8.40

input: Please report pEC50 for the following compound: CC(C)n1nc(C(=O)NCc2ccc(NC(=O)N(C)C)cc2)c2c1CCN(c1ccc(C(=O)N3C[C@@H]4OCCO[C@@H]4C3)cn1)C2 [Example 239]
output: 6.63

input: Please report pEC50 for the following compound: CCC1CN(c2ccc(C(=O)N(C)C)cn2)Cc2c(C(=O)NCc3ccc(NC(=O)N(C)C)cc3)nn(C(C)C)c21 (single isomer, unassigned) [Example 311]
output: 9.00

input: Please report pEC50 for the following compound: CC(C)n1nc(C(=O)NCc2ccc(NC(=O)N3CC4(CCN4)C3)cc2)c2c1[C@@H](C)CN(c1ccc(C(=O)N(C)C)cc1)C2 [Example 621]
output: 8.15

input: Please report pEC50 for the following compound: CC(C)n1nc(C(=O)NCc2ccc(NC(=O)NC3(C)CNC3)cc2)c2c1[C@@H](C)CN(c1ccc(C(=O)N(C)C)cc1)C2 [Example 739]
output: 8.70

input: Please report pEC50 for the following compound: CC(C)n1nc(C(=O)NCc2ccc(NC(=O)N(C)C)cc2)c2c1C(O)CN(c1ccc(C(=O)N(C)C)cn1)C2 (racemic) [Example 472]
output: 7.39

input: Please report pEC50 for the following compound: CC(C)n1nc(C(=O)NCc2ccc(NC(=O)N3CCN4CCCC[C@@H]4C3)c(F)c2)c2c1[C@@H](C)CN(c1ccc(C(=O)N(C)C)cc1)C2 [Example 687]
output: 9.00

input: Please report pEC50 for the following compound: Cc1c[nH]c(-c2ccc(CNC(=O)c3nn(C(C)C)c4c3CN(c3ccc(N5CCOC5=O)cn3)C[C@@H]4C)cc2)n1 [Example 518]
output: 8.70
